So I've got a bunch of molecules here, and I need their pIC50 values.
# Target: affinity purified β2GPI-dependent antiphospholipid antibody
# Procedure Text: Competitive inhibition ELISA: recombinant β2GPI proteins compete for antibody binding to coated full length recombinant β2GPI
# Parameters: species or system human
# Experimental Parameters: Ab 7104; read-out: 50% (concentration to give 50% inhibition)
pIC50: −log10 of the molar value.

{"Molecule": "-2345: recombinant β2GPI deletion mutant with domains 2-5 (protein) GRTPRVCPFAGILENGAVRYTTFEYPNTISFSCNTGFYLNGADSAKCTEEGKWSPELPVCAPIICPPPSIPTFATLRVYKPSAGNNSLYRDTAVFECLPQHAMFGNDTITCTTHGNWTKLPECREVKCPFPSRPDNGFVNYPAKPTLYYKDKATFGCHDGYSLDGPEEIECTKLGNWSAMPSCKASCKLPVKKATVVYQGERVKIQEKFKNGMLHGDKVSFFCKNKEKKCSYTEDAQCIDGTIEVPKCFKEHSSLAFWKTDASDVKPCGHHHHHH", "pIC50": "< 4.24"}
{"Molecule": "12---: recombinant β2GPI deletion mutant with domains 1 and 2 (protein) GRTCPKPDDLPFSTVVPLKTFYEPGEEITYSCKPGYVSRGGMRKFICPLTGLWPINTLKCTPRVCPFAGILENGAVRYTTFEYPNTISFSCNTGFYLNGADSAKCTEEGKWSPELPVCAPIIGHHHHHH", "pIC50": 6.00}

Now look at this entry.
Notebook: ---45: recombinant β2GPI deletion mutant with domains 4, 5 (protein) GREVKCPFPSRPDNGFVNYPAKPTLYYKDKATFGCHDGYSLDGPEEIECTKLGNWSAMPSCKASCKLPVKKATVVYQGERVKIQEKFKNGMLHGDKVSFFCKNKEKKCSYTEDAQCIDGTIEVPKCFKEHSSLAFWKTDASDVKPCGHHHHHH , pIC50 read as < 4.40
